Experiment Description: NCI Yeast Anticancer Drug Screen. Data for the cln2 rad14 strain (AID 165);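 note: 0% = growth equal to vehicle treated cultures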
Experimental Context: S. cerevisiae cln2 rad14 strain, at 50.0 µM (retest, dose inferred, filed as 5.0)
This is part of a sample that, as a whole, favours compounds with a hit. Of some 79,000 tested, about 15% had one in any assay. Calls of active or inactive are those of the source. Cut-off read from the data, not from the text of the source: active = growth inhibition above about 70%; inactive = the rest.
Please answer using one outcome listed in active, inactive

Check the results log: what was the call for CCCC/C(=N/Nc1ccc([N+](=O)[O-])cc1)C(=O)O ? inactive

Check the results log: what was the call for C1CCC(C2=NC3CCCCC3SC2)CC1 (configuration not stated) ? active

Check the results log: what was the call for COc1ccccc1Nc1nc(SC)ncc1SC ? inactive

Check the results log: what was the call for Cc1ccc2sc3ccc(N)cc3c(=O)c2c1 ? inactive

Check the results log: what was the call for O=C1c2ccccc2CCC1C(O)(C(F)(F)F)C(F)(F)F (configuration not stated) ? inactive

Check the results log: what was the call for O=C(O)c1nc2cc(C(F)(F)F)ccc2nc1Nc1ccc(F)cc1 ? inactive

Check the results log: what was the call for O=C(O)c1c2c(c(O)c3c1CN(C1CCCCC1)CO3)OCN(C1CCCCC1)C2 ? inactive

Check the results log: what was the call for O=[N+]([O-])c1ccc(C(Br)(Br)c2ccc([N+](=O)[O-])cc2)cc1 ? active

Check the results log: what was the call for CCCCCCCCCCNC(=O)C[n+]1cccc(C(=O)Nc2ccccc2)c1 ? active

Check the results log: what was the call for Cn1c(=S)sc2nc3ccccc3n2c1=S ? active

Check the results log: what was the call for CN(C)CCC(/C=C/c1ccccc1)=N\Nc1ccc(Cl)cc1 ? active

Check the results log: what was the call for O=c1ccc2nc3ccccc3sc-2c1 ? active

---

For each of the compounds below, state its growth inhibition.
Experiment Description: NCI Yeast Anticancer Drug Screen. Data for the bub3 strain (AID 167)
Experimental Context: S. cerevisiae bub3 mutant strain, at 5.0 µM (retest, dose inferred, filed as 0.5), active compounds read high
About 79,000 compounds went through this panel and 15% of them were active in at least one assay; those are over-represented in the sample as a whole. Where a SMILES comes first, the peptide text is derived from it. The star is where a group is joined. Cbz = O=C(OCc1ccccc1)*
Numbers only; they are read as %.

Identify growth inhibition associated with the compound COc1cccc2c1C(=O)c1c(O)c3c(c(O)c1C2=O)CC(O)(C(C)=O)CC3OC1CC(N/C(C)=C/C(C)=O)C(O)C(C)O1 (stereo unspecified) 69

Identify growth inhibition associated with the compound CCOC(=O)CNC(=O)CNC(=O)CNC(=O)OCc1ccccc1 (Cbz-Gly-Gly-Gly-OEt) -7

Identify growth inhibition associated with the compound Cc1cc(NCCO)nc2c1ccc1ccccc12 -3

Identify growth inhibition associated with the compound S=C(Nc1ccc2cn[nH]c2c1)Nc1ccc2cn[nH]c2c1 7

Identify growth inhibition associated with the compound CCCC1=C(c2ccccc2)C(O)(c2ccccc2)C(CCC)C1=O (stereo unspecified) -3

Identify growth inhibition associated with the compound COC(OC)C1C2C3C=CC(C4C(=O)OC(=O)C34)C12 (stereo unspecified) 0

---

Experiment Description: NCI Yeast Anticancer Drug Screen. Data for the rad50 strain (AID 155);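 note: 0% = growth of vehicle-only cultures of the same strain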
Experimental Context: S. cerevisiae rad50 strain growth inhibition; at 5.0 µM (retest, dose inferred, filed as 0.5)
Compounds without any hit were thinned out: in the full panel of roughly 79,000, 15% have a hit. Calls of active or inactive are those of the source. Cut-off read from the data, not from the text of the source: active = growth inhibition above about 70%; inactive = the rest.
Please answer using one outcome listed in active, inactive

Check the results log: what was the call for Cc1ccc[n+](CC(=O)C2CCC3CC4CCCCC4CC3C2)c1 (stereo not given) ? inactive

Check the results log: what was the call for CC(=O)OC[C@@]1(C)[C@@H]2CC[C@]3(C)[C@H](C(=O)C=C4[C@@H]5CC(C)(C)CC[C@]5(C(=O)O)CC[C@]43C)[C@@]2(C)CC[C@@H]1OC(C)=O ? inactive

Check the results log: what was the call for COc1ccc(OCC(O)CN2CCN(c3cccc(Cl)c3)CC2)cc1 (stereo not given) ? inactive

Check the results log: what was the call for Brc1ccc(N2COc3ccc4ccccc4c3C2)cc1 ? inactive

Check the results log: what was the call for O=c1c2ccccc2sc2cccc(NCCCN3CCN(CCCNc4cccc5sc6ccccc6c(=O)c45)CC3)c12 ? inactive

Check the results log: what was the call for c1ccc(-c2cc(Nc3ccc4c(c3)OCO4)c3cc(C4CCCCC4)ccc3n2)cc1 ? inactive

Check the results log: what was the call for OC(CC(O)(C(F)(F)Cl)C(F)(F)Cl)c1ccccc1 (stereo not given) ? inactive

Check the results log: what was the call for O=C(O)Cc1ccc2ccccc2c1-c1ccccc1 ? inactive

Check the results log: what was the call for O=C(NC1=Nc2c(ncn2COCCO)S(=O)(=O)[N-]1)c1ccccc1.[Ag+] ? active

Check the results log: what was the call for S=C(NCc1ccccc1)[S][Sb]([S]C(=S)NCc1ccccc1)[c]1ccccc1 ? inactive

Check the results log: what was the call for COC(=O)C1(C)CCCC2(C)C3CC(=O)C(C(C)C)=CC3(O)CCC12 (stereo not given) ? inactive

Check the results log: what was the call for CC(C)/C=C1\CCOC1=O ? inactive

Check the results log: what was the call for Cc1ccc(Nc2nc(C)c(C(/C=C/c3ccc4c(c3)OCO4)=N/Nc3ccc([N+](=O)[O-])cc3[N+](=O)[O-])s2)c([N+](=O)[O-])c1 ? inactive

Check the results log: what was the call for CCc1cccc(C(C)(C)C)c1NC(=S)N/C=C(\C#N)C(=O)c1ccc2ccccc2c1 ? inactive

Check the results log: what was the call for CCCCCCCCc1cc[n+](C2=C([O-])c3ccccc3C(=O)C2=O)cc1 ? active

Check the results log: what was the call for CCCCCCCCN(CCCCCCCC)CC(O)c1cc(OCC)nc2ccccc12 (stereo not given) ? inactive

Check the results log: what was the call for COc1ccccc1C1c2cc3c(cc2OC(N2CCOCC2)C1C)OCO3 (stereo not given) ? inactive

Check the results log: what was the call for COC(=O)c1cc(-c2ccc(C)cc2)c2c(=O)n(-c3ccccc3)[nH]c2n1 ? inactive

Check the results log: what was the call for CCc1cccc(CC)c1NC1=C(Cl)C(=O)c2ccccc2C1=O ? active

Check the results log: what was the call for CN1CCN(CCSC2Cc3cc(Cl)ccc3Sc3ccccc32)CC1 (stereo not given) ? inactive

Check the results log: what was the call for CC(=O)Oc1ccc(C)c(C(C)C(Cl)(Cl)Cl)c1 (stereo not given) ? inactive

Check the results log: what was the call for Fc1ccc(NC2=NCCN=C(Nc3ccc(F)cc3)SS2)cc1 ? inactive

Check the results log: what was the call for Nc1ccccc1C(=O)/C=C/c1ccccc1 ? inactive

Check the results log: what was the call for CCCCNC(=S)N/N=C/c1cccc(C)n1 ? inactive

Check the results log: what was the call for COc1cc(F)ccn1 ? inactive

Check the results log: what was the call for COc1ccc(/C=N/NS(=O)(=O)c2ccccc2)cc1 ? inactive

Check the results log: what was the call for O=S(=O)(c1cc(Br)ccc1O)c1cc(Br)ccc1O ? active

Check the results log: what was the call for CCCCCN(C(=O)CCl)c1ccccc1 ? inactive

Check the results log: what was the call for Cc1nc(Nc2ccc(Cl)cc2)sc1C(=O)NNC(=O)C(=O)NN ? inactive

Check the results log: what was the call for CCOc1cc2c(OCc3ccccc3)cc3c4cc(OC)c(OC)cc4c[n+](C)c3c2cc1OC ? active

Check the results log: what was the call for S=C1NCCNC(=S)SS1 ? inactive

Check the results log: what was the call for O=C(Cc1nc2ccccc2s1)Nc1cccc(C(F)(F)F)c1 ? inactive

Check the results log: what was the call for COC(=O)Nc1nc2ccc(CCC(=O)c3c(C)oc(C)c3-c3ccc(NC(C)=O)cc3)cc2[nH]1 ? inactive

Check the results log: what was the call for C/C(=N/NC(=S)N(C)C)c1ccccc1O ? inactive

Check the results log: what was the call for O=[N+]([O-])c1ccc(CSSCc2ccc([N+](=O)[O-])cc2)cc1 ? inactive

Check the results log: what was the call for CC(C)C(=O)N1Cc2cc(Cl)cc(Cl)c2OC(=O)c2ccccc21 ? inactive

Check the results log: what was the call for COc1ccc(-c2cc(-c3ccc(OC)cc3OC)[n+](C)c(-c3ccc(OC)cc3OC)c2)cc1 ? active

Check the results log: what was the call for C1CCC(CCCCc2nn[nH]n2)CC1 ? inactive

Check the results log: what was the call for C=C(Br)COc1ccc2c(C)cc(=O)oc2c1 ? inactive

Check the results log: what was the call for CC(=O)OC1C2C3C(C=CC2[C@H]1OC(C)=O)C1C3C=CC2C1C(OC(C)=O)[C@@H]2OC(C)=O (stereo not given in full) ? inactive

Check the results log: what was the call for CC(C)CC(N)C(=O)NNc1ccccc1 (stereo not given) ? inactive

Check the results log: what was the call for Oc1ccc(O)c(C2CCCCC2)c1 ? inactive

Check the results log: what was the call for CCC(c1ccc(O)cc1)C(CC)c1ccc(OCC(N)=O)cc1 (stereo not given) ? inactive

Check the results log: what was the call for C=CCNCCC1CCCCCC1 ? inactive

Check the results log: what was the call for CC(=O)/C(=C\c1c(Cl)cccc1Cl)C(=O)CCN(C)C ? inactive

Data provenance is PubChem BioAssay (NCI).
